# Target: HLA-A*0201 molecules on T2 cells (Homo sapiens, UniProt P04439, D140Y/D185E/D98H/E176V/E277Q/G131W/G231S/I119V/I121R/I166T/I218V/L300P/L318F/N151K/N90K/P208A/P217A/Q86G/Q94H/R138H/R169H/T345S)
# Construct: endogenous in cells; host or cells: T2 cells
# Protocol: class I HLA stabilization assay on T2 cells (flow cytometry, anti-HLA-A2 antibody)
# Format: cell-based
# Test Conditions: T2 cell stabilization assay
Observable: affinity for HLA-A2 molecule (stabilization on T2 cells), class in words

>  <Residue String>
MLVQSCTSI [G3, nonamer … from L. major ES protein Pr 78]

>  <Reading>
high

$$$$
>  <Residue String>
FMEVFGMLV [G2, nonamer … from L. major ES protein Pr 78]

>  <Reading>
high

$$$$
>  <Residue String>
TLGVKQMVV [F6, nonamer … from L. major ES protein Pr 74 (elongation factor 1-alpha)]

>  <Reading>
high

$$$$
>  <Residue String>
VVSVLTHSV [G4, nonamer … from L. major ES protein Pr 78]

>  <Reading>
intermediate

$$$$
>  <Residue String>
YLRTFPAAL [E2, nonamer … from L. major ES protein Pr 37]

>  <Reading>
intermediate

$$$$
